- Tested on: NCI/ADR-RES ovarian
- PROTOCOL_TEXT: NCI tumour cell line growth inhibition, 48 h
READOUT_LABEL: TGI

// O=c1c2ccccc2sc2cccc(NCCCN3CCN(CCCNc4cccc5sc6ccccc6c(=O)c45)CC3)c12 : TGI value = > 100 µM

Recorded TGI (compound NCCCNCCCCNCCCN ): > 91.6 µM

get_value(item= CC(C)=CCc1cc(O)cc2c1OC(C=C(C)C)C1=C2C(=O)C2=C(NCCS2(=O)=O)C1=O (stereo not given) , readout=TGI) returns > 16.7 µM

According to the records, this compound C[C@@H]1CCC2[C@@H](C)[C@@H](OCCO[C@H]3OC4O[C@@]5(C)CCC6[C@H](C)CCC([C@H]3C)[C@@]46OO5)OC3O[C@@]4(C)CCC1[C@]32OO4 (stereo not given in full) displays TGI of 3.14 µM

Recorded result, CCOC(=O)NC1CN2CCC1CC2 (stereo not given) , TGI: > 100 µM

The recorded TGI for entry Cc1ccc(/C=C/c2c(C(=O)/C=C/c3ccc(C(F)(F)F)cc3)c(C)nc3ccccc23)cc1 equals 5.92 µM

Entry CCOC(=O)c1ccc(NC(=O)O/N=C(/Cl)CCl)cc1 — recorded TGI = > 100 µM

The reported value for C[C@H]1Oc2cc(cnc2N)-c2c(nn(C)c2C#N)CN(C)C(=O)c2ccc(F)cc21 in terms of TGI is > 100 µM

Data point: CC(C)(C)C(=O)OC(N)/C=C/c1ccccc1 (stereo not given) ; TGI = > 100 µM

Reported TGI of O=C(O)CCN(CCC(=O)O)c1ccc(/C=C2\SC(=S)NC2=O)cc1 : > 100 µM

The value of TGI measured for the compound Nc1nc(N)c(N=Nc2ccc([As](=O)(O)O)cc2)c(=O)[nH]1 turned out to be > 100 µM

The compound identified as Cc1cn(CCCCCOC(=O)NC(CCCN=C(N)N)C(=O)O)c(=O)[nH]c1=O (stereo not given) registered its TGI at > 100 µM

The compound identified as CC(=O)OC1O[C@@H](C(C)(C)O)CC[C@@H]1[C@H]1CC[C@@]2(C)C3=C(CC[C@]12C)[C@@]1(C)C[C@@H](OC(=O)CC(C)(O)CC(=O)O)[C@H](OC(C)=O)C(C)(C)C1CC3 (stereo not given in full) registered its TGI at 33.7 µM

Reported TGI of CC(=O)Nc1ccc(-c2nc3ccccc3s2)cc1 : > 100 µM

Entry O=C1/C(=C/c2ccccc2)NC(=S)N1CN1CCOCC1 — recorded TGI = > 100 µM

The measured TGI associated with O=C(/C=C/C=C/c1ccccc1)c1ccc2c(c1)CCCC2 reads 65.8 µM

// field: TGI; key: COC(=O)C1C=CN(N(C)C)C2=C1C(=O)c1c(O)cccc1C2=O (stereo not given) ; value = 6.47 µM

get_value(item= O=c1cc2oc3cc(O)c(O)cc3c(-c3ccccc3O)c-2cc1O , readout=TGI) returns 42 µM

For O=C(NCCCN(CCCCN(CCCNC(=O)C(F)(F)F)CCCc1ccccc1)CCCc1ccccc1)C(F)(F)F the compound record lists TGI as 15.5 µM

Given item Cc1ccc(-c2cc(-c3ccc(Cl)cc3)nc(/N=C3\C(=O)N(CN4CCOCC4)c4ccc(Cl)cc43)n2)cc1 , the value recorded as its TGI is 61.3 µM
